tested on: SKBR3; assay: relative cell number vs DMSO control (72 h) (% of DMSO); higher = less growth inhibition (more cells); conditions: sgRNA knockout: sgNT, 10 nM
Mark Fulfilled for reported relative cell number of 80 or greater; mark Not fulfilled for anything smaller.

entrySmiles	category
O=[N+]([O-])c1ccc(O)c2ncccc12	Fulfilled
CO[C@H]1C[C@@H]2CC[C@@H](C)[C@@](O)(O2)C(=O)C(=O)N2CCCC[C@H]2C(=O)O[C@H]([C@H](C)C[C@@H]2CC[C@@H](OCCO)[C@H](OC)C2)CC(=O)[C@H](C)/C=C(\C)[C@@H](O)[C@@H](OC)C(=O)[C@H](C)C[C@H](C)/C=C/C=C/C=C/1C	Not fulfilled
CCC(C)(C)C(=O)O[C@H]1C[C@@H](C)C=C2C=C[C@H](C)[C@H](CC[C@@H]3C[C@@H](O)CC(=O)O3)[C@H]21	Fulfilled
CC(C)(C(=O)NCC(F)(F)C(F)(F)F)C(=O)N[C@@H]1C(=O)Nc2ccccc2-c2ccccc21	Fulfilled
c1cc(Nc2cc(C3CC3)[nH]n2)nc(Nc2ccc3nc[nH]c3c2)n1	Fulfilled

These measurements were taken from the supplement of paper PMC7661543.
